system: MCF10A; test: one-nucleolus phenotype percent effect (relative to siNT 0% and siNOL11 100%); higher = more cells with one nucleolus (ribosome biogenesis inhibition); details: 20 nM; 72 h
measurement label: one-nucleolus phenotype percent effect (%)
Write the value in % as a bare number.

Quick one: one-nucleolus phenotype percent effect of AAAAGCUGGGUUGAGAGGGU [hsa-miR-320c] ?
1.49

Follow-up item: CACAGGACUGACUCCUCACCCCAGUG [hsa-miR-4700-3p]
-16

Follow-up item: UUAGGGCCCUGGCUCCAUCUCC [hsa-miR-1296]
8

Follow-up item: ACACUGUCCCCUUCUCCCCAG [hsa-miR-6760-3p]
-27.2

Follow-up item: CAGUGCAAUAGUAUUGUCAAAGC [hsa-miR-301a-3p]
-17.2

Follow-up item: AGGCAGGUUAUCUGGGCUG [hsa-miR-4736]
19.8

Follow-up item: AGGAGCUAUCCACUCCAGGUGUCC [hsa-miR-6500-5p]
70.9

Follow-up item: UGGGGGCUGGGAUGGGCCAUGGU [hsa-miR-6848-5p]
7.99

Follow-up item: AGGUUGUCCGUGUUGUCUUCUCU [hsa-miR-494-5p]
3.91

Follow-up item: UGCAGCUCUGGUGGAAAAUGGAG [hsa-miR-4660]
1.97

Follow-up item: CGGGCAUGCUGGGAGAGACUUU [hsa-miR-6862-5p]
31.7
